Reported pEC50 by item:
Biological target: Ras GEF SOS (Son of Sevenless) (Homo sapiens, UniProt Q07889)
Sequence (Q07889 564-1049 limits assumed): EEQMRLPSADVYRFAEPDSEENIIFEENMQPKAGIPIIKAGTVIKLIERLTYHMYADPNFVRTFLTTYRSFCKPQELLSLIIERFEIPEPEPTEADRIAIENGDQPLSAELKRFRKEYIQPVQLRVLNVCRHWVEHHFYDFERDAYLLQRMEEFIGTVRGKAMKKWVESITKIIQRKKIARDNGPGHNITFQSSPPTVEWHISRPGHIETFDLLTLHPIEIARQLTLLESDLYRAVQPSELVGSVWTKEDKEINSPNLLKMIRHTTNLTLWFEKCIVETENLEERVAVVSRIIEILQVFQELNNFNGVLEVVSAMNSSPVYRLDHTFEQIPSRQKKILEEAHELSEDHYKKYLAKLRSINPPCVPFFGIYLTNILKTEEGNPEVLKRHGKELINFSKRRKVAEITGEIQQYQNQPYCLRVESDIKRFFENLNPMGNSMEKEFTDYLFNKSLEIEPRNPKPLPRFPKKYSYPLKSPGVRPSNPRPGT
Sequence (P01112 1-166 partner limits assumed): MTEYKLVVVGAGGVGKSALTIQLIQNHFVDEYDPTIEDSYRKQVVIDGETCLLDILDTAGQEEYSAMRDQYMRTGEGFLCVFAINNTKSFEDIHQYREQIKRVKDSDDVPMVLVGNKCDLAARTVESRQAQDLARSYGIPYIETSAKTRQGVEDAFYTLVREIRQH
Test: SOS-mediated nucleotide exchange on Ras (BODIPY-GDP fluorescence)
Conditions: SOS-mediated exchange of BODIPY-GDP for GTP on Ras
pEC50: −log10 of the molar value. Counter-ions that a name gives are not always drawn.

{"columns": ["molecule", "parameter_measured", "meas_value"],
 "data": [
  ["Cc1cc(Cn2c(NCC3CNC3)nc3c(N4CCN(C)CC4)cc(Cl)cc32)cc(C)c1F [Example 301]", "pEC50", "5.30 to 6.00"],
  ["Nc1nc2ccccc2n1Cc1ccc(F)cc1 [Example 1]", "pEC50", "4.00 to 4.52"]
]}

**Q:** Name the reported pEC50 value associated with the molecule Cc1cc2nc(NCCCN)n(Cc3cc(C)c(F)c(C)c3)c2cc1C [Example 43, trifluoroacetate]
**A:** 4.52 to 5.30

**Q:** Name the reported pEC50 value associated with the molecule Cc1cc(Cn2c(NCC3CNC3)nc3c(N4CCNCC4)cc(Cl)cc32)cc(C)c1F [Example 309]
**A:** 5.30 to 6.00

**Q:** Name the reported pEC50 value associated with the molecule Cc1cc2c(nc(N3CCNCC3)n2Cc2ccc(F)c(Cl)c2)c(-c2ccnn2-c2ccccc2)c1C [Example 171, trifluoroacetate]
**A:** 5.30 to 6.00

**Q:** Name the reported pEC50 value associated with the molecule Cc1cc2nc(N3CCNC(=O)C3)n(Cc3cc(C)c(F)c(C)c3)c2cc1C [Example 332]
**A:** 4.52 to 5.30

* * *

Biological target: UniProt:Q07889
Assay: SOS-mediated nucleotide exchange on Ras (BODIPY-GDP fluorescence)
Settings: SOS-mediated exchange of BODIPY-GDP for GTP on Ras
pEC50: −log10 of the molar value. Counter-ions that a name gives are not always drawn.
parameter_measured: pEC50

{"columns": ["compound", "system_name", "meas_value"],
 "data": [
  ["Cc1cc2nc(N3CCC(N)CC3)n(Cc3ccc(F)c(Cl)c3)c2cc1C [Example 294]", "UniProt:Q07889", "4.52 to 5.30"],
  ["Cc1cc2c(nc(N3CCNCC3)n2Cc2ccc(Cl)cc2)c(-c2ccccc2)c1C [Example 105, trifluoroacetate]", "UniProt:Q07889", "5.30 to 6.00"],
  ["Cc1cc2c(nc(NCCN)n2Cc2ccc(F)c(Cl)c2)c(-c2c(C)nn(C)c2C)c1C [Example 114, trifluoroacetate]", "UniProt:Q07889", "5.30 to 6.00"],
  ["NCCNCc1cc(Cl)cc2c1nc(N1CCNCC1)n2Cc1ccc(F)c(Cl)c1 [Example 137, trifluoroacetate]", "UniProt:Q07889", "5.30 to 6.00"],
  ["CC(C)Cn1nccc1-c1cc(Cl)cc2c1nc(N1CCNCC1)n2Cc1ccc(F)c(Cl)c1 [Example 174, trifluoroacetate]", "UniProt:Q07889", "5.30 to 6.00"]
]}

**Q:** Name the reported pEC50 value associated with the compound Cc1cc2nc(NCCO)n(Cc3ccc(F)c(Cl)c3)c2cc1C [Example 26]
**A:** 4.52 to 5.30

**Q:** Name the reported pEC50 value associated with the compound CC[C@H](N)c1cc(Cl)cc2c1nc(N1CCNCC1)n2Cc1cc(C)c(F)c(C)c1 [Example 157, trifluoroacetate]
**A:** > 6.00

**Q:** Name the reported pEC50 value associated with the compound CCCN1CC[C@@H](C(=O)c2ccccc2)[C@H]1c1cc(Cl)cc2c1nc(N1CCNCC1)n2Cc1cc(C)c(F)c(C)c1 [Example 148, trifluoroacetate]
**A:** 5.30 to 6.00

**Q:** Name the reported pEC50 value associated with the compound NCCNc1nc2ncccc2n1Cc1ccc(F)cc1 [Example 250]
**A:** 4.52 to 5.30
